# assay_target: human Cav2.2 α (α1B) subunit, along with the human β3 and α2δ1 auxiliary subunits (Homo sapiens)
# Construct: expressed in transfected cells
# Sequence (Q00975 whole entry): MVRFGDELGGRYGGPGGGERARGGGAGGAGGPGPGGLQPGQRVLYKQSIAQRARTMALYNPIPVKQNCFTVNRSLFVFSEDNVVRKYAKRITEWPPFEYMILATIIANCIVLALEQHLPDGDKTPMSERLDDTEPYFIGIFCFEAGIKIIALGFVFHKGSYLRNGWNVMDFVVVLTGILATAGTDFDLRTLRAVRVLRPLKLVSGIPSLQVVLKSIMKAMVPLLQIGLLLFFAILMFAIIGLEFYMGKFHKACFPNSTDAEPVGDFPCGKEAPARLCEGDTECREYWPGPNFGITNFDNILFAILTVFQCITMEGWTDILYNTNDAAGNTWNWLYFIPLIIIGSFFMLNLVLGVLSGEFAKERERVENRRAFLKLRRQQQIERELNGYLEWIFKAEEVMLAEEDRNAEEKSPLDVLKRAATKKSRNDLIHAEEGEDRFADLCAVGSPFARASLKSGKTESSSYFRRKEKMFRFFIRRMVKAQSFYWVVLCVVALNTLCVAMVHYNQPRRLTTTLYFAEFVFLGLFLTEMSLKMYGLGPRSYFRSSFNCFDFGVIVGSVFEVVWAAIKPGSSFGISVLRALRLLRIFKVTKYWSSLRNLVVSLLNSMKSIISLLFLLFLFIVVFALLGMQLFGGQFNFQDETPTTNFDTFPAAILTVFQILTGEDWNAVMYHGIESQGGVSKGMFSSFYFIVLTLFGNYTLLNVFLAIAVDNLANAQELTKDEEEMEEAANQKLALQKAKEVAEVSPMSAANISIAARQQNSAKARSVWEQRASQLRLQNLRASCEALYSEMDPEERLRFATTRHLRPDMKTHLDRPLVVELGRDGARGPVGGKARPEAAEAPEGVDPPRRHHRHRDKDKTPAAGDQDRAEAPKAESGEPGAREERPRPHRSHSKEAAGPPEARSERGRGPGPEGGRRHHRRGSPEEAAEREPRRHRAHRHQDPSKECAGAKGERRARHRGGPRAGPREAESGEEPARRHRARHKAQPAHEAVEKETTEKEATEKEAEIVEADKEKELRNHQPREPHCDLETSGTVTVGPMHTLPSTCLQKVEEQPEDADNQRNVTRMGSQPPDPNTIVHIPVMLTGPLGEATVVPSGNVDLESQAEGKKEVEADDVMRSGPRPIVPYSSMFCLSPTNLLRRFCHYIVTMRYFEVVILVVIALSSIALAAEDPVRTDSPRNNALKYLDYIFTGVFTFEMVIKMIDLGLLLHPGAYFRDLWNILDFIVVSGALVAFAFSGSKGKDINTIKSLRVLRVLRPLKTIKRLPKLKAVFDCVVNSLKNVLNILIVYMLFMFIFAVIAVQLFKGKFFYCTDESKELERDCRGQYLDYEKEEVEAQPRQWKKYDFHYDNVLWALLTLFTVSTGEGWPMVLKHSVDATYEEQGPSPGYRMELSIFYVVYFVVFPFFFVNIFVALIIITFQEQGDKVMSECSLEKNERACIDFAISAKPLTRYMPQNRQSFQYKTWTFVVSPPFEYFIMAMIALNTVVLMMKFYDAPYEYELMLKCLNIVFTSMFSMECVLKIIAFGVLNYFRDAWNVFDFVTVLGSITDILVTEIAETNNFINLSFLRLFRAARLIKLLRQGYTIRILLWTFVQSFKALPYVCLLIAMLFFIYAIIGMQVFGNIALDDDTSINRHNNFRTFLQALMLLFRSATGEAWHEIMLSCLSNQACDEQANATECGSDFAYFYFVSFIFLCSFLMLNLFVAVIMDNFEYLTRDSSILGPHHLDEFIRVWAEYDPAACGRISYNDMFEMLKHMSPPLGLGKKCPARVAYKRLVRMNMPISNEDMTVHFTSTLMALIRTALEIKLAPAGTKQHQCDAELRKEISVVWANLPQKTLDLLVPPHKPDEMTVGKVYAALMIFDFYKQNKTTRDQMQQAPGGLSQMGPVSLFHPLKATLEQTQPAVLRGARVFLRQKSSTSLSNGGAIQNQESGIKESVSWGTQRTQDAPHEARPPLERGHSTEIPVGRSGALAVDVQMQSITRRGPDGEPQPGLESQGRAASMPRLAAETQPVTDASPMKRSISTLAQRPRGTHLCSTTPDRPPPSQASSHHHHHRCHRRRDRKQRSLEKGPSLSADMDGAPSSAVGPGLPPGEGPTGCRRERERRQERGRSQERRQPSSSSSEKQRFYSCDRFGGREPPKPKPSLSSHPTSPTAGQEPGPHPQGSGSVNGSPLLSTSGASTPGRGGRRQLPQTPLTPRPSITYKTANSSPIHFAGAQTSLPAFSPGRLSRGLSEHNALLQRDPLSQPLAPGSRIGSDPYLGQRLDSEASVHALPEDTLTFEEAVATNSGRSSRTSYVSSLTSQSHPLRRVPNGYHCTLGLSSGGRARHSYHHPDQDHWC
# Sequence (P54284 whole entry partner): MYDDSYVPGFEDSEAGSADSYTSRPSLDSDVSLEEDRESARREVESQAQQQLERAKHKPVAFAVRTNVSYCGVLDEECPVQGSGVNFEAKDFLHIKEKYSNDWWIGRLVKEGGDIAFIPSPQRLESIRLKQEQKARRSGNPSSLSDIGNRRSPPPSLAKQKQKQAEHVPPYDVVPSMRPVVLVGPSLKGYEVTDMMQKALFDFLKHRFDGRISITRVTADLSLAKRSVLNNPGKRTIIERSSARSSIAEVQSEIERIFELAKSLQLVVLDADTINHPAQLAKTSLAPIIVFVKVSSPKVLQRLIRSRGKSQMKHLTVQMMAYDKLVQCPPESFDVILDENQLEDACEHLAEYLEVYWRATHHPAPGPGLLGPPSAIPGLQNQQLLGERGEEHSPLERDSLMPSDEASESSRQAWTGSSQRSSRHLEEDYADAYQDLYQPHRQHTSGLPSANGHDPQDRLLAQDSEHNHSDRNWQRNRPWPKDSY
# Sequence (P54289 25-946 partner limits assumed): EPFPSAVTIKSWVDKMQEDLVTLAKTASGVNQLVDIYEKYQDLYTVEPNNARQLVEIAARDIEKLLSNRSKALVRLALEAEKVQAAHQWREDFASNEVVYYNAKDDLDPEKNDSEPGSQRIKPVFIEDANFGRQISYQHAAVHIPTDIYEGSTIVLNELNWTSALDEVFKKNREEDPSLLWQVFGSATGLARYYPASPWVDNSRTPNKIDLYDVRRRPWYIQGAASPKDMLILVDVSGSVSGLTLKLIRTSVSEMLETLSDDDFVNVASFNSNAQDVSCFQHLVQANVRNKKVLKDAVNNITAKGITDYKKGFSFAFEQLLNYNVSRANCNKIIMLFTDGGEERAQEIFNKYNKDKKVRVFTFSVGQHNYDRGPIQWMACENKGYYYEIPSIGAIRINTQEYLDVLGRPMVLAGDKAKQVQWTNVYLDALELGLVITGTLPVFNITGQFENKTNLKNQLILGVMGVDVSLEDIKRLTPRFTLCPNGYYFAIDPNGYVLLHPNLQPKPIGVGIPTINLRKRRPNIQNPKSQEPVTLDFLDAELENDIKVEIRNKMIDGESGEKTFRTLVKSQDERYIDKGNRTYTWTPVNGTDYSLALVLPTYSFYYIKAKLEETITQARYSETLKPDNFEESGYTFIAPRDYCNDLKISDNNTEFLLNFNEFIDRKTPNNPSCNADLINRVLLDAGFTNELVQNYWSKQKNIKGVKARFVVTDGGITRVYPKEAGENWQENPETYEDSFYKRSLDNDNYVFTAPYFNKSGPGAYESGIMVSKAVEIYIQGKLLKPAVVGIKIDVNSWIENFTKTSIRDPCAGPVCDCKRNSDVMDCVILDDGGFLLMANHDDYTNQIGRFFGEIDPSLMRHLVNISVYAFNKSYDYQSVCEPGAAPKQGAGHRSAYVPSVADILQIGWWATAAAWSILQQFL
# Sequence (P54289 947-1103 partner limits assumed): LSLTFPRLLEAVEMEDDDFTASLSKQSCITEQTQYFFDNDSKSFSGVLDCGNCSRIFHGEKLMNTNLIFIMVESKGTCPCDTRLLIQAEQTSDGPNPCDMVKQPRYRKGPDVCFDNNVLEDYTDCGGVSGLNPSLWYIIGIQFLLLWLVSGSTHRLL
# assay_protocol: hCav2.2 assay, IonWorks planar array electrophysiology in stable HEK293 cell line
# Type: cell-based
# run_parameters: inhibition by 50% of current elicited by the 1st depolarising pulse; HEK293 cells; read-out: tonic pIC50 (converted)
Structures can show the parent of a compound that is named as a salt.
property_measured: IC50

Known results for compounds:
- compound: "C[C@@H]1COCCN1Cc1nnnn1-c1ccc(C#N)c(C(F)(F)F)c1 [Compound 41]"
  property_measured: "IC50"
  value: "≤ 3.16 µM"
- compound: "N#Cc1ccc(-n2nnnc2CN2CCC[C@@H]2C(F)(F)F)cc1 [Compound 73]"
  property_measured: "IC50"
  value: "≤ 31.6 µM"
- compound: "FC(F)(F)c1ccc(-n2nnnc2CCN2CCOCC2)cc1 [Compound 9, hydrochloride]"
  property_measured: "IC50"
  value: "≤ 31.6 µM"

Would you kindly look at the next entry?
Find the recorded IC50 belonging to C[C@@H]1C(=O)N(C)CCN1Cc1nnnn1-c1ccc(C(F)(F)F)cc1 [Compound 89] and report it.
≤ 10 µM
